# Tested on: Klebsiella pneumoniae
# protocol: in vitro anti-bacterial activity, two-fold agar plate dilution method
# Format: cell-based
# conditionInfo: 20 h
testReadout: MIC (µg/mL)
Value expressed in µg/mL; do not type the unit.

-- ask Check Klebsiella pneumoniae data and give MIC for C=Cn1cc[n+](CC2=C(C(=O)[O-])N3C(=O)C(NC(=O)/C(=N\OC(C)(C)C(=O)O)c4csc(N)n4)C3SC2)c1 (stereo not drawn) .
-- reply 0.39

-- ask Check Klebsiella pneumoniae data and give MIC for CC(C)(O/N=C(\C(=O)NC1C(=O)N2C(C(=O)[O-])=C(C[n+]3ccn(-c4ccc(O)cc4)c3)CSC12)c1csc(N)n1)C(=O)O (stereo not drawn) .
-- reply 0.78

-- ask Check Klebsiella pneumoniae data and give MIC for C#CCn1cc[n+](CC2=C(C(=O)[O-])N3C(=O)C(NC(=O)/C(=N\OC)c4csc(N)n4)C3SC2)c1 (stereo not drawn) .
-- reply 0.1

-- ask Check Klebsiella pneumoniae data and give MIC for C=CCn1cc[n+](CC2=C(C(=O)[O-])N3C(=O)C(NC(=O)/C(=N\OC)c4csc(N)n4)C3SC2)c1 (stereo not drawn) .
-- reply 0.1

-- ask Check Klebsiella pneumoniae data and give MIC for C=CCn1c[n+](CC2=C(C(=O)[O-])N3C(=O)C(NC(=O)/C(=N\OC(C)(C)C(=O)O)c4csc(N)n4)C3SC2)c2ccccc21 (stereo not drawn) .
-- reply 0.78

-- ask Check Klebsiella pneumoniae data and give MIC for C=C(C)Cn1c[n+](CC2=C(C(=O)[O-])N3C(=O)C(NC(=O)/C(=N\OC(C)(C)C(=O)O)c4csc(N)n4)C3SC2)c2ccccc21 (stereo not drawn) .
-- reply 3.13

-- ask Check Klebsiella pneumoniae data and give MIC for C=CCCn1c[n+](CC2=C(C(=O)[O-])N3C(=O)C(NC(=O)/C(=N\OC(C)(C)C(=O)O)c4csc(N)n4)C3SC2)c2ccccc21 (stereo not drawn) .
-- reply 3.13

-- ask Check Klebsiella pneumoniae data and give MIC for C#CCn1c[n+](CC2=C(C(=O)[O-])N3C(=O)C(NC(=O)/C(=N\OC(C)(C)C(=O)O)c4csc(N)n4)C3SC2)c2ccccc21 (stereo not drawn) .
-- reply 0.78

-- ask Check Klebsiella pneumoniae data and give MIC for CCCCn1c[n+](CC2=C(C(=O)[O-])N3C(=O)C(NC(=O)/C(=N\OC(C)(C)C(=O)O)c4csc(N)n4)C3SC2)c2ccccc21 (stereo not drawn) .
-- reply 3.13

* * *

# Test system: Klebsiella pneumoniae
# protocol: in vitro anti-bacterial activity, two-fold agar plate dilution method
# Type: cell-based
# conditionInfo: agar dilution, 37° C., 20 hours, read-out: MIC
# Method: The agent for preventing and treating bacterial infections was tested for in vitro anti-bacterial activity by the following two-fold agar plate dilution method. Each test strain was incubated for 20 hours in a bouillon for measuring sensitivity to obtain a test culture (containing about 10% live cells/ml). […] The minimum growth inhibitory concentration (MIC) in μg/ml was then determined. […]
Exercise: for every item that follows, state its recorded MIC.
Value expressed in µg/mL; do not type the unit.

-- ask Tell me measured MIC for C=CCn1c[n+](CC2=C(C(=O)[O-])N3C(=O)C(NC(=O)/C(=N\OC)c4csc(N)n4)C3SC2)c2ccccc21 (stereo not drawn) please.
-- reply 1.56

-- ask Tell me measured MIC for CC(C)(O/N=C(\C(=O)NC1C(=O)N2C(C(=O)[O-])=C(C[n+]3cn(Cc4ccccc4)c4ccccc43)CSC12)c1csc(N)n1)C(=O)O (stereo not drawn) please.
-- reply 6.25

-- ask Tell me measured MIC for C=CCO/N=C(\C(=O)NC1C(=O)N2C(C(=O)[O-])=C(C[n+]3ccn(-c4ccc(O)cc4)c3)CSC12)c1csc(N)n1 (stereo not drawn) please.
-- reply 0.78

* * *

Exercise: for every item that follows, state its recorded MIC.
# Test system: Proteus vulgaris
# protocol: in vitro anti-bacterial activity, two-fold agar plate dilution method
# Assay type: cell-based
# conditionInfo: 20 h
Value expressed in µg/mL; do not type the unit.

-- ask Check Proteus vulgaris data and give MIC for C=C(C)Cn1c[n+](CC2=C(C(=O)[O-])N3C(=O)C(NC(=O)/C(=N\OC(C)(C)C(=O)O)c4csc(N)n4)C3SC2)c2ccccc21 (stereo not drawn) [R] .
-- reply 0.78

-- ask Check Proteus vulgaris data and give MIC for CC=CCn1c[n+](CC2=C(C(=O)[O-])N3C(=O)C(NC(=O)/C(=N\OC(C)(C)C(=O)O)c4csc(N)n4)C3SC2)c2ccccc21 (stereo not drawn) [X] .
-- reply 1.56

-- ask Check Proteus vulgaris data and give MIC for C=CCCn1c[n+](CC2=C(C(=O)[O-])N3C(=O)C(NC(=O)/C(=N\OC(C)(C)C(=O)O)c4csc(N)n4)C3SC2)c2ccccc21 (stereo not drawn) [Compound S] .
-- reply 0.78

* * *

Exercise: for every item that follows, state its recorded MIC.
# Tested on: Klebsiella pneumoniae
# protocol: in vitro anti-bacterial activity, two-fold agar plate dilution method
# Assay type: cell-based
# conditionInfo: agar dilution, 37° C., 20 hours, read-out: MIC

-- ask Tell me measured MIC for C=CCO/N=C(\C(=O)NC1C(=O)N2C(C(=O)[O-])=C(C[n+]3ccn(C)c3)CSC12)c1csc(N)n1 (stereo not shown) please.
-- reply 0.02 µg/mL

-- ask Tell me measured MIC for C=CCn1cc[n+](CC2=C(C(=O)[O-])N3C(=O)C(NC(=O)/C(=N\OC(C)(C)C(=O)O)c4csc(N)n4)C3SC2)c1 (stereo not shown) please.
-- reply 0.78 µg/mL

-- ask Tell me measured MIC for CC(C)=CCn1c[n+](CC2=C(C(=O)[O-])N3C(=O)C(NC(=O)/C(=N\OC(C)(C)C(=O)O)c4csc(N)n4)C3SC2)c2ccccc21 (stereo not shown) please.
-- reply 12.5 µg/mL

-- ask Tell me measured MIC for C=CCO/N=C(\C(=O)NC1C(=O)N2C(C(=O)[O-])=C(C[n+]3cn(CC=C)c4ccccc43)CSC12)c1csc(N)n1 (stereo not shown) please.
-- reply 6.25 µg/mL

* * *

Exercise: for every item that follows, state its recorded MIC.
# System: Serratia marcescens
# protocol: in vitro anti-bacterial activity, two-fold agar plate dilution method
# Type: cell-based
# conditionInfo: 20 h
Value expressed in µg/mL; do not type the unit.

-- ask Tell me measured MIC for C=CCCn1c[n+](CC2=C(C(=O)[O-])N3C(=O)C(NC(=O)/C(=N\OC(C)(C)C(=O)O)c4csc(N)n4)C3SC2)c2ccccc21 (stereo not drawn) please.
-- reply 3.13

-- ask Tell me measured MIC for C#CCn1c[n+](CC2=C(C(=O)[O-])N3C(=O)C(NC(=O)/C(=N\OC(C)(C)C(=O)O)c4csc(N)n4)C3SC2)c2ccccc21 (stereo not drawn) please.
-- reply 0.78

-- ask Tell me measured MIC for CC=CCn1c[n+](CC2=C(C(=O)[O-])N3C(=O)C(NC(=O)/C(=N\OC(C)(C)C(=O)O)c4csc(N)n4)C3SC2)c2ccccc21 (stereo not drawn) please.
-- reply 1.56

-- ask Tell me measured MIC for Cn1c[n+](CC2=C(C(=O)[O-])N3C(=O)C(NC(=O)/C(=N\OC(C)(C)C(=O)O)c4csc(N)n4)C3SC2)c2ccccc21 (stereo not drawn) please.
-- reply 0.78

-- ask Tell me measured MIC for C=Cn1cc[n+](CC2=C(C(=O)[O-])N3C(=O)C(NC(=O)/C(=N\OC(C)(C)C(=O)O)c4csc(N)n4)C3SC2)c1 (stereo not drawn) please.
-- reply 0.78

-- ask Tell me measured MIC for C=C(C)Cn1c[n+](CC2=C(C(=O)[O-])N3C(=O)C(NC(=O)/C(=N\OC(C)(C)C(=O)O)c4csc(N)n4)C3SC2)c2ccccc21 (stereo not drawn) please.
-- reply 1.56

-- ask Tell me measured MIC for C#CCn1cc[n+](CC2=C(C(=O)[O-])N3C(=O)C(NC(=O)/C(=N\OC)c4csc(N)n4)C3SC2)c1 (stereo not drawn) please.
-- reply 1.56

-- ask Tell me measured MIC for CC(C)(O/N=C(\C(=O)NC1C(=O)N2C(C(=O)[O-])=C(C[n+]3ccn(-c4ccc(O)cc4)c3)CSC12)c1csc(N)n1)C(=O)O (stereo not drawn) please.
-- reply 0.78

-- ask Tell me measured MIC for C=CCn1c[n+](CC2=C(C(=O)[O-])N3C(=O)C(NC(=O)/C(=N\OC(C)(C)C(=O)O)c4csc(N)n4)C3SC2)c2ccccc21 (stereo not drawn) please.
-- reply 1.56

-- ask Tell me measured MIC for C=CCO/N=C(\C(=O)NC1C(=O)N2C(C(=O)[O-])=C(C[n+]3ccn(CC=C)c3)CSC12)c1csc(N)n1 (stereo not drawn) please.
-- reply 0.78

-- ask Tell me measured MIC for C#CCn1cc[n+](CC2=C(C(=O)[O-])N3C(=O)C(NC(=O)/C(=N\OC(C)(C)C(=O)O)c4csc(N)n4)C3SC2)c1 (stereo not drawn) please.
-- reply 0.78

-- ask Tell me measured MIC for CCCCn1c[n+](CC2=C(C(=O)[O-])N3C(=O)C(NC(=O)/C(=N\OC(C)(C)C(=O)O)c4csc(N)n4)C3SC2)c2ccccc21 (stereo not drawn) please.
-- reply 1.56
